# test-system: L1 (Enterococcus faecalis)
# method-notes: Steady-state SPR
# Type: binding
# experimental-setup: SD
pKd: −log10 of the molar value.

compound: CC(=O)N[C@H]1[C@H](O[C@H]2[C@H](O)[C@@H](NC(C)=O)[C@H](O[C@H]3[C@H](O)[C@@H](NC(C)=O)C(O)O[C@@H]3CO)O[C@@H]2CO)O[C@H](CO)[C@@H](O[C@@H]2O[C@H](CO)[C@@H](O[C@@H]3O[C@H](CO)[C@@H](O)[C@H](O)[C@H]3NC(C)=O)[C@H](O)[C@H]2NC(C)=O)[C@@H]1O (stereo partly drawn)
pKd: 4.92
--
compound: CC(=O)N[C@H]1[C@H](O[C@H]2[C@H](O)[C@@H](NC(C)=O)[C@H](O[C@H]3[C@H](O)[C@@H](NC(C)=O)C(O)O[C@@H]3CO)O[C@@H]2CO)O[C@H](CO)[C@@H](O[C@@H]2O[C@H](CO)[C@@H](O[C@@H]3O[C@H](CO)[C@@H](O[C@@H]4O[C@H](CO)[C@@H](O)[C@H](O)[C@H]4NC(C)=O)[C@H](O)[C@H]3NC(C)=O)[C@H](O)[C@H]2NC(C)=O)[C@@H]1O (stereo partly drawn)
pKd: 5.25
--
compound: CC(=O)N[C@H]1[C@H](O[C@H]2[C@H](O)[C@@H](NC(C)=O)C(O)O[C@@H]2CO)O[C@H](CO)[C@@H](O[C@@H]2O[C@H](CO)[C@@H](O)[C@H](O)[C@H]2NC(C)=O)[C@@H]1O (stereo partly drawn)
pKd: 3.34

###

# test-system: L1 (Enterococcus faecalis, UniProt P37710)
# method-notes: Steady-state SPR
# Format: binding
test-readout: Kd

compound: CC(=O)N[C@H]1[C@H](O[C@H]2[C@H](O)[C@@H](NC(C)=O)C(O)O[C@@H]2CO)O[C@H](CO)[C@@H](O)[C@@H]1O (stereo partly shown)
test-readout: Kd
assay-result: > 5 mM

###

# test-system: L1L2 (Enterococcus faecalis, UniProt P37710)
# method-notes: Steady-state SPR
# Format: binding

compound: CC(=O)N[C@H]1[C@H](O[C@H]2[C@H](O)[C@@H](NC(C)=O)C(O)O[C@@H]2CO)O[C@H](CO)[C@@H](O)[C@@H]1O (stereo partly shown)
test-system: L1L2 (Enterococcus faecalis, UniProt P37710)
Kd: > 5 mM

###

# test-system: 1LysM module of AtlA (Enterococcus faecalis)
# method-notes: biochemical
# Assay type: binding
# experimental-setup: Apparent KD to 1LysM (SPR), single LysM module; ± standard deviation
The entries below are paired with their reported Kd.

molecule: CC(=O)N[C@H]1[C@H](O[C@H]2[C@H](O)[C@@H](NC(C)=O)[C@H](O[C@H]3[C@H](O)[C@@H](NC(C)=O)C(O)O[C@@H]3CO)O[C@@H]2CO)O[C@H](CO)[C@@H](O[C@@H]2O[C@H](CO)[C@@H](O[C@@H]3O[C@H](CO)[C@@H](O[C@@H]4O[C@H](CO)[C@@H](O)[C@H](O)[C@H]4NC(C)=O)[C@H](O)[C@H]3NC(C)=O)[C@H](O)[C@H]2NC(C)=O)[C@@H]1O (stereo partly drawn)
Kd, µM: 6
//
molecule: CC(=O)N[C@H]1[C@H](O[C@H]2[C@H](O)[C@@H](NC(C)=O)C(O)O[C@@H]2CO)O[C@H](CO)[C@@H](O[C@@H]2O[C@H](CO)[C@@H](O)[C@H](O)[C@H]2NC(C)=O)[C@@H]1O (stereo partly drawn)
Kd, µM: 408
//
molecule: CC(=O)N[C@H]1[C@H](O[C@H]2[C@H](O)[C@@H](NC(C)=O)C(O)O[C@@H]2CO)O[C@H](CO)[C@@H](O[C@@H]2O[C@H](CO)[C@@H](O[C@@H]3O[C@H](CO)[C@@H](O)[C@H](O)[C@H]3NC(C)=O)[C@H](O)[C@H]2NC(C)=O)[C@@H]1O (stereo partly drawn) [GlcNAc4, reference compound]
Kd, µM: 43.4

###

# test-system: L1L2L3 (Enterococcus faecalis, UniProt P37710)
pKd: −log10 of the molar value.
The entries below are paired with their reported pKd.

compound: CC(=O)N[C@H]1[C@H](O[C@H]2[C@H](O)[C@@H](NC(C)=O)C(O)O[C@@H]2CO)O[C@H](CO)[C@@H](O[C@@H]2O[C@H](CO)[C@@H](O[C@@H]3O[C@H](CO)[C@@H](O)[C@H](O)[C@H]3NC(C)=O)[C@H](O)[C@H]2NC(C)=O)[C@@H]1O (stereo partly drawn) [GlcNAc4]
pKd: 4.65

compound: CC(=O)N[C@H]1[C@H](O[C@H]2[C@H](O)[C@@H](NC(C)=O)C(O)O[C@@H]2CO)O[C@H](CO)[C@@H](O)[C@@H]1O (stereo partly drawn) [GlcNAc2]
pKd: 2.15

compound: CC(=O)N[C@H]1[C@H](O[C@H]2[C@H](O)[C@@H](NC(C)=O)C(O)O[C@@H]2CO)O[C@H](CO)[C@@H](O[C@@H]2O[C@H](CO)[C@@H](O)[C@H](O)[C@H]2NC(C)=O)[C@@H]1O (stereo partly drawn) [GlcNAc3]
pKd: 3.20

###

# test-system: L1L2L3 (Enterococcus faecalis)
# Sequence (P37710 338-542 A476S/S477A): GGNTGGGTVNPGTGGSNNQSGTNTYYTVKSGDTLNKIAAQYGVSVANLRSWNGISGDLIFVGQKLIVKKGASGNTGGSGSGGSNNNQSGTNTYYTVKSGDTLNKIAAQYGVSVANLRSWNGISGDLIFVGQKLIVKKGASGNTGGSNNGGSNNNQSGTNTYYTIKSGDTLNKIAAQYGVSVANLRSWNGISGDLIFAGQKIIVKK
The entries below are paired with their reported Kd.
test-readout: Kd (µM)

compound: CC(=O)N[C@H]1[C@H](O[C@H]2[C@H](O)[C@@H](NC(C)=O)[C@H](O[C@H]3[C@H](O)[C@@H](NC(C)=O)C(O)O[C@@H]3CO)O[C@@H]2CO)O[C@H](CO)[C@@H](O[C@@H]2O[C@H](CO)[C@@H](O[C@@H]3O[C@H](CO)[C@@H](O)[C@H](O)[C@H]3NC(C)=O)[C@H](O)[C@H]2NC(C)=O)[C@@H]1O (some centres unmarked) [GlcNAc5]
test-system: L1L2L3 (Enterococcus faecalis)
assay-result: 4.6

compound: CC(=O)N[C@H]1[C@H](O[C@H]2[C@H](O)[C@@H](NC(C)=O)[C@H](O[C@H]3[C@H](O)[C@@H](NC(C)=O)C(O)O[C@@H]3CO)O[C@@H]2CO)O[C@H](CO)[C@@H](O[C@@H]2O[C@H](CO)[C@@H](O[C@@H]3O[C@H](CO)[C@@H](O[C@@H]4O[C@H](CO)[C@@H](O)[C@H](O)[C@H]4NC(C)=O)[C@H](O)[C@H]3NC(C)=O)[C@H](O)[C@H]2NC(C)=O)[C@@H]1O (some centres unmarked) [GlcNAc6]
test-system: L1L2L3 (Enterococcus faecalis)
assay-result: 3

###

# test-system: UniProtKB P37710
# method-notes: Steady-state SPR
# Assay type: binding
# experimental-setup: SD
pKd: −log10 of the molar value.
test-readout: pKd

compound: CC(=O)N[C@H]1[C@H](O[C@H]2[C@H](O)[C@@H](NC(C)=O)C(O)O[C@@H]2CO)O[C@H](CO)[C@@H](O[C@@H]2O[C@H](CO)[C@@H](O[C@@H]3O[C@H](CO)[C@@H](O)[C@H](O)[C@H]3NC(C)=O)[C@H](O)[C@H]2NC(C)=O)[C@@H]1O (stereo partly shown)
assay-result: 4.30

###

# test-system: L1–L6 (Enterococcus faecalis, UniProt P37710)
# Sequence (P37710 338-737): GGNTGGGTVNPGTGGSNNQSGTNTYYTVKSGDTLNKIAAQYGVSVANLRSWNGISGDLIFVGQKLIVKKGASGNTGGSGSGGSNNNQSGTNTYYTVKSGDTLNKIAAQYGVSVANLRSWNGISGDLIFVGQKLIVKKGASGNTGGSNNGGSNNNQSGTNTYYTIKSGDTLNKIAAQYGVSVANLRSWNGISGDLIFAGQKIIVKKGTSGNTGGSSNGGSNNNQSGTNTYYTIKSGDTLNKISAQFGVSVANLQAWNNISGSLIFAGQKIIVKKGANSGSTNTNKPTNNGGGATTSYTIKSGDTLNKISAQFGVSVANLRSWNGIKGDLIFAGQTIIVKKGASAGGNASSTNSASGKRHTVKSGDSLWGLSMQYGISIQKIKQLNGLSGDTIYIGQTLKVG

molecule: CC(=O)N[C@H]1[C@H](O[C@H]2[C@H](O)[C@@H](NC(C)=O)C(O)O[C@@H]2CO)O[C@H](CO)[C@@H](O)[C@@H]1O (some centres unmarked) [GlcNAc2]
Kd: 4420 µM

molecule: CC(=O)N[C@H]1[C@H](O[C@H]2[C@H](O)[C@@H](NC(C)=O)C(O)O[C@@H]2CO)O[C@H](CO)[C@@H](O[C@@H]2O[C@H](CO)[C@@H](O)[C@H](O)[C@H]2NC(C)=O)[C@@H]1O (some centres unmarked) [GlcNAc3]
Kd: 702 µM

molecule: CC(=O)N[C@H]1[C@H](O[C@H]2[C@H](O)[C@@H](NC(C)=O)[C@H](O[C@H]3[C@H](O)[C@@H](NC(C)=O)C(O)O[C@@H]3CO)O[C@@H]2CO)O[C@H](CO)[C@@H](O[C@@H]2O[C@H](CO)[C@@H](O[C@@H]3O[C@H](CO)[C@@H](O)[C@H](O)[C@H]3NC(C)=O)[C@H](O)[C@H]2NC(C)=O)[C@@H]1O (some centres unmarked) [GlcNAc5]
Kd: 2.2 µM

molecule: CC(=O)N[C@H]1[C@H](O[C@H]2[C@H](O)[C@@H](NC(C)=O)[C@H](O[C@H]3[C@H](O)[C@@H](NC(C)=O)C(O)O[C@@H]3CO)O[C@@H]2CO)O[C@H](CO)[C@@H](O[C@@H]2O[C@H](CO)[C@@H](O[C@@H]3O[C@H](CO)[C@@H](O[C@@H]4O[C@H](CO)[C@@H](O)[C@H](O)[C@H]4NC(C)=O)[C@H](O)[C@H]3NC(C)=O)[C@H](O)[C@H]2NC(C)=O)[C@@H]1O (some centres unmarked) [GlcNAc6]
Kd: 1.5 µM

molecule: CC(=O)N[C@H]1[C@H](O[C@H]2[C@H](O)[C@@H](NC(C)=O)C(O)O[C@@H]2CO)O[C@H](CO)[C@@H](O[C@@H]2O[C@H](CO)[C@@H](O[C@@H]3O[C@H](CO)[C@@H](O)[C@H](O)[C@H]3NC(C)=O)[C@H](O)[C@H]2NC(C)=O)[C@@H]1O (some centres unmarked) [GlcNAc4]
Kd: 18.6 µM

src = paper PMC4083421
